Test: Nrf2 qHTS screen for inhibitors: Nrf2 A549 ARE-Fluc Confirmation Assay for Hit Validation; further: nearly all actives have a fitted effect of over 65% in size
Details: A549 ARE-firefly luciferase reporter, luminescence; series mostly up to 46.1 µM
The whole screen tested about 1,400 compounds, of which about 1,000 (71%) were called active. About 12% were inconclusive and are not listed. The call rests on the fitted dose curve; in most records, active means well fitted inhibition curve with a large enough effect; inconclusive means small, poorly fitted or top-dose-only effect; inactive means no such curve, though single readings can be large or run the other way. So high a share suggests a set chosen from earlier hits. A selection follows.
Lab note: assign the record to one of active, inactive

Example cases with answers are listed next.
# COMPOUND, QUALITATIVE_LABEL
data = [
    ("CCC(C)(C)c1ccc(Oc2ccc(NC(=O)COC(=O)C3=COCCO3)cc2)cc1", "active"),
    ("CC(=O)Nc1ccc(Nc2c3ccccc3nc3ccccc23)cc1", "active"),
    ("CC(=O)N1CCCc2cc(S(=O)(=O)N3CCCC(C(=O)N4CCN(c5cccc(Cl)c5)CC4)C3)ccc21 (centres undefined)", "active"),
    ("CC1(C)O[C@@H]2CC3C4C[C@H](F)C5=CC(=O)C=CC5(C)C4C(O)CC3(C)[C@]2(C(=O)CO)O1 (some centres undefined)", "active"),
]

For O=C1C=C(c2ccnc3cc(Cl)ccc23)C[C@@H](c2ccc3c(c2)OCO3)C1 , which call appears in the assay record?
active

For CC(C)Cn1c(N)c(C(=O)COC(=O)CN2C(=O)C3CC=CCC3C2=O)c(=O)n(C)c1=O (centres undefined) , which call appears in the assay record?
active

For COCCn1c(SCC(=O)Nc2ccccc2F)nc2c(c1=O)SCC2 , which call appears in the assay record?
inactive

For CC1(C)CC(N2CCN(C(c3ccccc3)c3ccccc3)CC2)=CC(=[N+]2CCCCC2)C1 , which call appears in the assay record?
active

For CC(=O)N1c2ccc(S(=O)(=O)N3CCCC(C(=O)Nc4cccc(Cl)c4)C3)cc2CC1C (centres undefined) , which call appears in the assay record?
active
